Origin of values: patent US20250277012A1

Target or test system: UniProt Q9NP59
Sequence (Q9NP59 1-571): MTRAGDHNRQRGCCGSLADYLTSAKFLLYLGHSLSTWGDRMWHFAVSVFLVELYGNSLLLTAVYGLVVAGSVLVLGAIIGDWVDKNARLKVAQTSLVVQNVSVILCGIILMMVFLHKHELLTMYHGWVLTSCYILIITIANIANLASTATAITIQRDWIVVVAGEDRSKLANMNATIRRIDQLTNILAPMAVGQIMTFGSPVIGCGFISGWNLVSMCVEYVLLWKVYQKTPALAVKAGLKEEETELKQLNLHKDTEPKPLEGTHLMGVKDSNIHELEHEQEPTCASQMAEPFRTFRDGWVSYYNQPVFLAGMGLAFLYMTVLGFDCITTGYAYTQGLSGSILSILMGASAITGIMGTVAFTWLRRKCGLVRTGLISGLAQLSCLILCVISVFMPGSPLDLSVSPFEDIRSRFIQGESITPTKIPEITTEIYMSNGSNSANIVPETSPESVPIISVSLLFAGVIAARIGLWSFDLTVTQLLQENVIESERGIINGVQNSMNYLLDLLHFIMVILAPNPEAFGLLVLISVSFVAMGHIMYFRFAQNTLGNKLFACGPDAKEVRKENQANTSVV
Experiment notes: FPN activity assay: ferroportin-GFP internalization/degradation in HEK293 cells
Format: cell-based
Parameters: expressed in transfected cells
Assay context: ferroportin-GFP HEK293 cells, at least 18 hours; read-out: FPN IC50
Positions of bridges follow the written chain, without caps; N, C: chain ends. Non-standard residues stand in square brackets, D forms with d. Residues, ends and D or L forms follow the SMILES beside them. Groups on a side chain read outwards from the residue. *: point of attachment. Dip = N[C@H](C(=O)O)C(c1ccccc1)c1ccccc1; Palmitoyl = CCCCCCCCCCCCCCCC(=O)*; β3hF = N[C@H](CC(=O)O)Cc1ccccc1; hCys = N[C@@H](CCS)C(=O)O; Ahx = NCCCCCC(=O)O
Measure: DC50

Kindly state the measured DC50 obtained for CCCCCCCCCCCCCCCC(=O)NCCCCCC(=O)NCCCC[C@H](NC(=O)[C@@H](NC(=O)[C@@H]1CCSSCC[C@H](NC(C)=O)C(=O)N[C@@H](CCC(=O)O)C(=O)N[C@@H]([C@@H](C)O)C(=O)N[C@@H](Cc2c[nH]cn2)C(=O)N[C@@H](C(c2ccccc2)c2ccccc2)C(=O)N2CCC[C@H]2C(=O)N1)[C@@H](C)CC)C(=O)N[C@H](CC(N)=O)Cc1ccccc1 [Compd 14] (Ac-[hCys]ETH[Dip]P[hCys]IK([Ahx-Palmitoyl])[β3hF]-NH2; disulfide 1-7) with UniProt Q9NP59.
0.1 to 0.5 µM

* * *

Kindly supply the reported pIC50 values for the records listed here.
Target or test system: ferroportin (Homo sapiens, UniProt Q9NP59)
Experiment notes: T47D cell-based ferroportin internalization assay in presence of mouse serum albumin (MSA)
Parameters: a human breast carcinoma adherent cell line which endogenously expresses ferroportin; host or cells: T47D
Assay context: T47D internalization assay in presence of mouse serum albumin (MSA); Table 6E
pIC50: −log10 of the molar value. Positions of bridges follow the written chain, without caps; N, C: chain ends. Non-standard residues stand in square brackets, D forms with d. Residues, ends and D or L forms follow the SMILES beside them. Groups on a side chain read outwards from the residue. *: point of attachment. X1 = C[N+](C)(CCNC(=O)CCCCCCCCCCCCCCCCC(=O)O)CC(=O)*; C18 diacid = O=C(O)CCCCCCCCCCCCCCCCC(=O)*; Dip = N[C@H](C(=O)O)C(c1ccccc1)c1ccccc1; Palmitoyl = CCCCCCCCCCCCCCCC(=O)*; β3hF = N[C@H](CC(=O)O)Cc1ccccc1; Aad = N[C@@H](CCCC(=O)O)C(=O)O; NMeK = CN[C@@H](CCCCN)C(=O)O; Isovaleryl = CC(C)CC(=O)*; Dap = NC[C@H](N)C(=O)O; AEEA = NCCOCCOCC(=O)O; Ahx = NCCCCCC(=O)O

Returns the measured pIC50 for the input compound. Input: COC(=O)CC[C@H](NC(=O)CC(C)C)C(=O)N[C@H](C(=O)N[C@@H](Cc1c[nH]cn1)C(=O)N[C@H](C(=O)N1CCC[C@H]1C(=O)N[C@H]1CSSC[C@@H](C(=O)N[C@@H](CCCCNC(=O)CCCCCNC(=O)C[N+](C)(C)CCNC(=O)CCCCCCCCCCCCCCCCC(=O)O)C(=O)N[C@H](CC(=O)N[C@H](CCCCN)C(N)=O)Cc2ccccc2)NC1=O)C(c1ccccc1)c1ccccc1)[C@@H](C)O [compound 311] (Isovaleryl-E(OMe)TH[Dip]PCCK([Ahx-X1])[β3hF][dK]-NH2; disulfide 6-7)
7.00 to 8.00

Returns the measured pIC50 for the input compound. Input: CCCCCCCCCCCCCCCC(=O)NCCCCCC(=O)NCCCC[C@@H](C(=O)N[C@H](CC(=O)N[C@H](CCCCN)C(N)=O)Cc1ccccc1)N(C)C(=O)[C@@H]1CSSC[C@H](NC(=O)[C@@H]2CCCN2C(=O)[C@@H](NC(=O)[C@H](Cc2cnc[nH]2)NC(=O)[C@@H](NC(=O)[C@H](CCC(=O)OC)NC(=O)CC(C)C)[C@@H](C)O)C(c2ccccc2)c2ccccc2)C(=O)N1 [compound 307] (Isovaleryl-E(OMe)TH[Dip]PCC[NMeK]([Ahx-Palmitoyl])[β3hF][dK]-NH2; disulfide 6-7)
8.00 to 9.00

Returns the measured pIC50 for the input compound. Input: CC(C)CC(=O)N[C@@H](CCCC(=O)O)C(=O)N[C@H](C(=O)N[C@@H](Cc1c[nH]cn1)C(=O)N[C@H](C(=O)N1CCC[C@H]1C(=O)N[C@H]1CSSC[C@@H](C(=O)N(C)[C@@H](CCCCNC(=O)COCCOCCNC(=O)COCCOCCNC(=O)[C@H](CN)NC(=O)CCCCCCCCCCCCCCCCC(=O)O)C(=O)N[C@H](CC(=O)N[C@H](CCCCN)C(N)=O)Cc2ccccc2)NC1=O)C(c1ccccc1)c1ccccc1)[C@@H](C)O [compound 244] (Isovaleryl-[Aad]TH[Dip]PCC[NMeK]([AEEA-AEEA-Dap-C18 diacid])[β3hF][dK]-NH2; disulfide 6-7)
7.00 to 8.00

Returns the measured pIC50 for the input compound. Input: CC(C)CC(=O)N[C@@H](CCC(=O)O)C(=O)N[C@H](C(=O)N[C@@H](Cc1c[nH]cn1)C(=O)N[C@H](C(=O)N1CCC[C@H]1C(=O)N[C@H]1CSSC[C@@H](C(=O)N(C)[C@@H](CCCCNC(=O)COCCOCCNC(=O)COCCOCCNC(=O)[C@H](CN)NC(=O)CCCCCCCCCCCCCCCCC(=O)O)C(=O)N[C@H](CC(N)=O)Cc2ccccc2)NC1=O)C(c1ccccc1)c1ccccc1)[C@@H](C)O [compound 295] (Isovaleryl-ETH[Dip]PCC[NMeK]([AEEA-AEEA-Dap-C18 diacid])[β3hF]-NH2; disulfide 6-7)
7.00 to 8.00
